Reference for the values: patent US9914732B2

Assay read-out Ki; system under study: UniProt:Q13451.
Property name: Ki

CCC1CN(Cc2ccccn2)C(=O)C2CCCC1N2S(=O)(=O)c1cc(Cl)cc(Cl)c1 (stereo in doubt)    ≤ 0.1 µM
COC[C@H]1CN(Cc2cnn[nH]2)C(=O)[C@@H]2CCC[C@H]1N2S(=O)(=O)c1cccc(C(N)=O)c1    ≤ 0.1 µM
COC[C@H]1CN(Cc2cnnn2S(=O)(=O)c2ccccc2)C(=O)[C@@H]2CCC[C@H]1N2S(=O)(=O)c1cccc(F)c1    0.1 to 0.5 µM
C=C[C@@H]1CN(Cc2ccccn2)C(=O)[C@@H]2CCC[C@H]1N2S(=O)(=O)c1cccc(C#N)c1    0.1 to 0.5 µM
COc1ccc(OCCN2CCC3CCCC(C2=O)N3S(=O)(=O)c2ccc3ncsc3c2)cc1OC (stereo not drawn) [Ref. 2, reference compound]    1 to 5 µM
C=C[C@@H]1CN(CC(=O)OCC)C(=O)[C@@H]2CCC[C@H]1N2S(=O)(=O)c1cc(Cl)cc(Cl)c1    0.1 to 0.5 µM
COCCN1C[C@H](CCO)[C@H]2CCC[C@@H](C1=O)N2S(=O)(=O)c1cc(Cl)cc(Cl)c1    0.1 to 0.5 µM
COc1ccc(OCCN2C[C@H](C(C)(C)O)[C@H]3CCC[C@@H](C2=O)N3S(=O)(=O)c2cc(Cl)cc(Cl)c2)cc1OC    ≤ 0.1 µM
C#CCN1C[C@H](COC)[C@H]2CCC[C@@H](C1=O)N2S(=O)(=O)c1cccc(C(N)=O)c1    0.1 to 0.5 µM
C=CC1CN(Cc2ccccn2)C(=O)C2CCCC1N2S(=O)(=O)c1cc(Cl)cc(Cl)c1 (stereo in doubt)    0.1 to 0.5 µM
C=C[C@@H]1CN(CCCCOC)C(=O)[C@@H]2CCC[C@H]1N2S(=O)(=O)c1cc(Cl)cc(Cl)c1    0.5 to 1 µM
C#CCN1C[C@H](COC)[C@H]2CCC[C@@H](C1=O)N2S(=O)(=O)c1cc(Cl)c(NC(C)=O)c(Cl)c1    0.1 to 0.5 µM
COc1ccc(OCCN2C[C@H](C[C@H](C)O)C3CCCC(C2=O)N3S(=O)(=O)c2cc(Cl)cc(Cl)c2)cc1OC (single isomer, unassigned) [Compound D5]    ≤ 0.1 µM
C=CC1CN(CC(N)=O)C(=O)C2CCCC1N2S(=O)(=O)c1cc(Cl)cc(Cl)c1 (stereo in doubt)    0.1 to 0.5 µM
COC[C@H]1CN(Cc2cnn[nH]2)C(=O)[C@@H]2CCC[C@H]1N2S(=O)(=O)c1cccnc1    ≤ 0.1 µM
C=CC1CN(CC#N)C(=O)C2CCCC1N2S(=O)(=O)c1cc(Cl)cc(Cl)c1 (stereo in doubt)    0.1 to 0.5 µM
C#CCN1C[C@H](COC)[C@H]2CCC[C@@H](C1=O)N2S(=O)(=O)c1ccc(-c2ncccn2)cc1    0.1 to 0.5 µM
C=CC1CN(CCNC)C(=O)C2CCCC1N2S(=O)(=O)c1cc(Cl)cc(Cl)c1 (stereo in doubt)    0.1 to 0.5 µM

---

Biological target: FKBP51 (Homo sapiens)
Sequence (Q13451 42-130 limits assumed): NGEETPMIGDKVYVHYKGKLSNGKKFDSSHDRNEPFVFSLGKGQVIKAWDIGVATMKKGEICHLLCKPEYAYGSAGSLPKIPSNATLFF
Property name: Ki

C#CCN1C[C@H](COC)[C@H]2CCC[C@@H](C1=O)N2S(=O)(=O)c1cc(Br)cc(C(=O)OC)c1 [Compound N11]    100 to 500 nM
COC[C@H]1CN(Cc2cnn[nH]2)C(=O)[C@@H]2CCC[C@H]1N2S(=O)(=O)c1cccc(F)c1 [Compound N17]    ≤ 100 nM
C=CC1CN(CCCOCc2ccccc2)C(=O)C2CCCC1N2S(=O)(=O)c1cc(Cl)cc(Cl)c1 (stereo in doubt) [Compound J1]    100 to 500 nM
C=CC1CN(CCCOC)C(=O)C2CCCC1N2S(=O)(=O)c1cc(Cl)cc(Cl)c1 (stereo in doubt) [Compound J2]    500 to 1000 nM
